- PROTOCOL: Cytotoxicity against mouse J774A.1 cells assessed as reduction in cell viability by MTT assay
- Assay type: toxicity, cell-based, J774.A1
MEASURED PARAMETER: CC50 (µM)
Express the result in µM but write the number alone.

The cases that follow already have their CC50 on record.
{"STRUCTURE STRING": "O=C(Nc1ccc(Br)cc1)c1cc(Cl)ccc1O", "REPORTED VALUE": 50.8}
{"STRUCTURE STRING": "O=C(Nc1ccc(F)cc1[N+](=O)[O-])c1cc(Cl)ccc1O", "REPORTED VALUE": 49.6}

Query: Quick one: give measured CC50 for O=C(Nc1cccc(Cl)c1)c1cc(Cl)ccc1O
Result: 50.5

Query: Please give the documented CC50 of O=C(Nc1ccc(F)c(F)c1)c1cc(Cl)ccc1O
Result: 51.2

From: ChEMBL document CHEMBL5331088
